Listing: IC50 of selected compounds
# measurement.target: recombinant human cIAP2-BIR3 protein (Homo sapiens)
# Construct: recombinant human cIAP2-BIR3 protein; purchased Reaction biology APT-11-372
# Sequence (Q13489 238-349 limits assumed): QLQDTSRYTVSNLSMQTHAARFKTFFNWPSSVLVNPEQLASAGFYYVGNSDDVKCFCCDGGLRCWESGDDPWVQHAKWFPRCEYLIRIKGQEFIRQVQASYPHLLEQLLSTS
# method.notes: Recombinant human c-IAP2-BIR3 biochemical assay (HTRF, peptide displacement)
# experimental.context: 3.7 nM cIAP2-BIR3, 3.7 nM AbuRPF-K(5-Fam)-NH2 peptide, read-out: Protein binding IC50 (nM) c-IAP2
# Protocol: II. Recombinant Human c-IAP2-BIR3 Biochemical Assay Compounds disclosed herein were tested for blocking of recombinant human cIAP2-BIR3 protein (Cat: APT-11-372, Reaction biology) with its peptide in an assay based on Homogeneous Time Resolved Fluorescence. […] The HTRF signals (ex337 nm, em520 nm/490 nm) were read on BMG PHERAstar FS instrument. […]
Give your result in nM as a bare value.

The following compounds have reported results that may help.
1) C[C@@H]1CN(CC(=O)N2c3cc(Cc4ccc(F)cc4)c(C(=O)N(C)C)nc3OC[C@@H]2C)[C@@H](CN2[C@H](C)COC[C@H]2C)CN1
0.3
2) C[C@@H]1CN(CC(=O)N2CCOc3nc(CO)c(Cc4ccc(F)cc4)cc32)[C@@H](CN2CCOC[C@H]2C)CN1
2.9

Attention now turns to another entry.
So the reported IC50 for C[C@@H]1CN(CC(=O)N2c3cc(Cc4ccc(F)cc4)c(C(=O)NCC4CCN(C)CC4)nc3OC[C@@H]2C)[C@@H](CN2[C@H](C)COC[C@H]2C)CN1 , on recombinant human cIAP2-BIR3 protein (Homo sapiens), turned out to be 0.29
